Data provenance: the supplement of paper PMC8612539

# Test system: Mannheimia haemolytica
# experimentalDetails: minimum inhibitory concentration (MIC)
# setupConditions: isolate (source animal id): 113
observable: minimum inhibitory concentration

Dear colleague, I am looking for the recorded minimum inhibitory concentration of the following molecule: CC1(C)S[C@@H]2[C@H](NC(=O)Cc3ccccc3)C(=O)N2[C@H]1C(=O)O 0.5 µg/mL

CCC[C@@H]1C[C@@H](C(=O)N[C@@H]([C@H]2O[C@H](SC)[C@H](O)[C@@H](O)[C@H]2O)[C@H](C)Cl)N(C)C1 , same question. > 16 µg/mL

Record: CC1(C)S[C@@H]2[C@H](NC(=O)[C@H](N)c3ccccc3)C(=O)N2[C@H]1C(=O)O ≤ 0.25 µg/mL

Another: CNC(C)C1CCC(N)C(OC2C(N)CC(N)C(OC3OCC(C)(O)C(NC)C3O)C2O)O1 (configuration not stated) 16 µg/mL

// same read-out, input: CC[C@H]1OC(=O)C[C@@H](O)[C@H](C)[C@@H](O[C@@H]2O[C@H](C)[C@@H](O)[C@H](N(C)C)[C@H]2O)[C@@H](CCN2CCCCC2)C[C@@H](C)C(=O)/C=C/C(C)=C/[C@@H]1CN1CCCCC1 > 16 µg/mL

Same lookup for CN1C[C@@H]2C[C@H]1CN2c1cc2c(cc1F)c(=O)c(C(=O)O)cn2C1CC1 , please. > 1 µg/mL

Follow-up item: CN(C)[C@@H]1C(O)=C(C(N)=O)C(=O)[C@@]2(O)C(O)=C3C(=O)c4c(O)cccc4[C@@](C)(O)[C@H]3C[C@@H]12 > 8 µg/mL
